Measured parameter: melting point
Quick note: number first, unit second.

Known results for compounds:
>  <Compound>
O=C1OC(c2ccccc2)=NC1=Cc1ccccc1F [4-(2-Fluoro-benzylidene)-2-phenyl-4H-oxazol-5-one]

>  <melting point>
149 °C

$$$$
>  <Compound>
CN(C)c1cccc2c(S(=O)(=O)Cl)cccc12 [dansyl chloride]

>  <melting point>
72 °C

$$$$
>  <Compound>
Oc1c(F)c(F)c(F)c(F)c1F [Pentafluorophenol]

>  <melting point>
35 °C

$$$$
>  <Compound>
CC(=O)Oc1cccc(C(=O)O)c1C [3-acetoxy-2-methylbenzoic acid]

>  <melting point>
150 °C

$$$$

Given the entry N(=N/c1ccccc1)c2ccccc2 [azobenzene] , report its measured melting point.
69 °C

Given the entry Fc1cccc(P(c2cccc(F)c2)c2cccc(F)c2)c1 [tris(3-fluorophenyl)phosphine] , report its measured melting point.
62 °C

Given the entry CCN(CC)CC [triethylamine] , report its measured melting point.
-115 °C

Given the entry CN(C)c1ccc(/C=C2\SC(=S)NC2=O)cc1 [5-(4-dimethylaminobenzylidene)rhodanine] , report its measured melting point.
278 °C

Given the entry O=C(O)c1cccnc1Oc1ccc(F)cc1 [2-(4-fluorophenoxy)nicotinic acid] , report its measured melting point.
184 °C

Given the entry CC(C)(C)NCC(O)c1ccc(O)c(CO)c1 (stereo not given) [Salbutamol] , report its measured melting point.
158 °C

Given the entry CCCCCCC=O [heptanal] , report its measured melting point.
-43 °C

Given the entry CC(C)O [Isopropyl Alcohol] , report its measured melting point.
-89.5 °C

----------
Sorting guide: entries reporting melting point beneath 100 °C go in the yes (1) pile, the rest go in the no (0) pile.

>  <Compound>
C=CCCl [allyl chloride]

>  <Answer label>
yes (1)

$$$$
>  <Compound>
ON(/C=C/c1ccccc1)c1ccccc1 [N-hydroxy-N-[(E)-2-phenylethenyl]aniline]

>  <Answer label>
no (0)

$$$$
>  <Compound>
CNCCCC12CCC(c3ccccc31)c1ccccc12

>  <Answer label>
yes (1)

$$$$

Quick check: melting point of O=C(O)c1cc[n+]([O-])cc1 [isonicotinic acid n-oxide] under 100 °C?
no (0)

Quick check: melting point of N#CCS(=O)(=O)c1ccc(F)cc1 under 100 °C?
yes (1)

Quick check: melting point of N#CCC(=O)N1CCCC1 under 100 °C?
yes (1)

Quick check: melting point of O=[N+]([O-])c1ccc(N2CCOCC2)cc1 under 100 °C?
no (0)

Quick check: melting point of CC(=O)O[C@@H]1[C@@H](OC(C)=O)[C@H](C)O[C@H](C#N)[C@@H]1OC(C)=O under 100 °C?
no (0)

Quick check: melting point of Nc1cccc([N+](=O)[O-])c1 under 100 °C?
no (0)

Quick check: melting point of c1ccc(Cc2ccccc2)cc1 under 100 °C?
yes (1)

Quick check: melting point of CCCCCCCCO under 100 °C?
yes (1)

Quick check: melting point of O=Cc1ccc(C=O)cc1 under 100 °C?
no (0)

Quick check: melting point of O=C(/C=C1\Cc2ccccc21)c1ccccc1 under 100 °C?
yes (1)

----------
Below, each entry is listed alongside its reported melting point.
Number in °C, nothing else.

Known results for molecules:
>  <Molecule>
CC(C)c1ccccc1B(O)O

>  <Readout unit>
°C

>  <melting point>
86

$$$$
>  <Molecule>
C=CCCCCCCCCCCCCCC

>  <Readout unit>
°C

>  <melting point>
4

$$$$
>  <Molecule>
O=C(O)c1cnn(-c2ccc([N+](=O)[O-])cc2)c1C(F)(F)F

>  <Readout unit>
°C

>  <melting point>
201

$$$$

Next molecule, melting point to be filled in.
Given the entry CC(=O)Nc1ccc(Cl)cc1F [2-fluoro-4-chloroacetanilide] , report its measured melting point.
157
